Target: PIM3 (Homo sapiens (Human), UniProt Q86V86)
Assay: PIM3 kinase activity test (Mobility shift assay)
Format: biochemical
Attribute: IC50

Completed entries (count: 5):
OC[C@H]1CC[C@H](Nc2ccc3ncc(-c4ccc(C(F)(F)F)s4)n3n2)CO1; 1000 to 10000 nM
CC(C)(O)[C@H]1CC[C@H](Nc2ccc3nc(C#N)c(-c4cccc(C(F)(F)F)c4)n3n2)CC1; > 10000 nM
FC(F)(F)c1cccc(-c2cnc3ccc(NC4CC5(CCN(C6CC6)CC5)C4)nn23)c1; 1000 to 10000 nM
OC[C@H]1CC[C@H](Nc2ccc3ncc(-c4cccc(C(F)(F)F)c4)n3n2)CO1; 1000 to 10000 nM
O[C@@H]1CCC[C@@H](Nc2ccc3ncc(-c4cccc(C(F)(F)F)c4)n3n2)CC1; 1000 to 10000 nM

Return IC50 for the following compound: CN1CCCC(Nc2ccc3ncc(-c4cccc(C(F)(F)F)c4)n3n2)CC1 (centres unmarked)
100 to 1000 nM

Return IC50 for the following compound: CN1CCC(CNc2ccc3ncc(-c4cccc(N(C)C)c4)n3n2)CC1
1000 to 10000 nM

Return IC50 for the following compound: CC(C)(O)[C@H]1CC[C@H](Nc2ccc3ncc(-c4cccc(-c5ccco5)c4)n3n2)CC1
100 to 1000 nM
